testedTarget: T1, human GIPR (human, UniProt P48546 22-466)
T1 sequence (looked up): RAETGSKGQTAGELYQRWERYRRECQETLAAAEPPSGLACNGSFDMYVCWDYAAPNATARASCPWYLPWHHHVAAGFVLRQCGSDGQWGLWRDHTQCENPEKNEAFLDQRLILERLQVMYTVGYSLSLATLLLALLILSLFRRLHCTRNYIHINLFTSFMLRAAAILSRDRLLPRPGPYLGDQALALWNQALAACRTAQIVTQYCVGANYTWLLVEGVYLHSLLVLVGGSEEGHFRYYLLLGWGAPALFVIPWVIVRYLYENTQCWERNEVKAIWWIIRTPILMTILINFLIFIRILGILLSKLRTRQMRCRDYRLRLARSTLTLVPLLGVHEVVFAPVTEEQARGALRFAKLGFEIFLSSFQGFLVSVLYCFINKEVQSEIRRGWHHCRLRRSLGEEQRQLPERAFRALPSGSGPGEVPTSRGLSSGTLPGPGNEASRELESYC
protocolText: cell-based or functional assay
Starred links: 1 amine or outer side, 2 acyl side, 3 side chain; linkers in the order of their positions; H or OH if unused. Non-standard residues stand in square brackets, D forms with d. Groups on a side chain read outwards from the residue. No end group written: not given here. *: point of attachment. C15 diacid = O=C(O)CCCCCCCCCCCCCC(=O)*; γGlu = O=C(O)[C@H](CCC(=O)[*:2])N[*:1]; Palmitoyl = CCCCCCCCCCCCCCCC(=O)*; acyl = not defined here; Aib = CC(C)(N)C(=O)O
valueKind: GIPR EC50 nM (A) (nM)
Answers are plain numbers, in nM.

YAEGTFISDYSIAMDKIHQQDFVNWLLAQKGKKNDWKHNIIQ (Lys-(palmitoyl acyl fatty acid acyl) at 16; C-terminal -NH2) [Compound No. 3] = 0.331
Y[Aib]EGTFISDYSIALDKK([ethylene glycol-ethylene glycol-C15 diacid])HQQDFVNWLLAQRG-OH [Compound No. 26] = 0.001
Y[Aib]EGTFTSDYSI[Aib]LDKIAQRAFVQWLIA[Aib]KGKKQEWKHQITQK(acyl)-NH2 (reading uncertain; also: Lys43 acylated, acyl not given here) [Compound No. 16] = 0.001
Y[Aib]EGTFISDYSIAMDKK([γGlu-Palmitoyl])HQQDFVNWLLAQKGKKNDWKHNIIQ-OH (not fully specified; also: acyl given as C16DA in synthesis) [Compound No. 5] = 0.001
Y[Aib]EGTFISDYSIALDKK([ethylene glycol-ethylene glycol-C15 diacid])HQQDFVNWLLAQR-NH2 [Compound No. 27] = 0.001

Consider now this further binder.
Q: Would you kindly share the measured GIPR EC50 nM (A) for Ac-YAEGTFISDYSIAMDKIHQQDFVNWLLAQKGKKNDWKHNIIQ-OH [Compound No. 1] ?
A: 0.01
